Origin of measurements: patent US8309552B2

Measured EC50 of individual entries
- targetSystem: CD80-CD28 interaction (Homo sapiens, UniProt P33681)
- Sequence (P33681 35-242 limits assumed): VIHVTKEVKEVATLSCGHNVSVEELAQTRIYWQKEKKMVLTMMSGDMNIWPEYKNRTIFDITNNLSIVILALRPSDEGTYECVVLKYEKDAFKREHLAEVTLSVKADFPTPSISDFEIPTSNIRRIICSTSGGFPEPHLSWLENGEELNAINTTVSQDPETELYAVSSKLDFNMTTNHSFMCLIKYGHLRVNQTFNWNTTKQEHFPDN
- assayProcedure: Homogenous Time Resolved Fluorescence (HTRF) assay, cell free
- Format: binding
- experimentalContext: cell free HTRF assay; concentration series 100 μM-1.7 nM; 4 hours at room temperature; read-out: Activity (EC50 in the HTRF assay)
- Procedure: Homogenous Time Resolved Fluorescence Assay The examples described above were tested in a cell free Homogenous Time Resolved Fluorescence (HTRF) assay to determine their activity as inhibitors of the CD80-CD28 interaction. […] Non-specific interaction was measured by substituting a mouse Fab fragment (C215) for the CD80 mouse Fab fragment fusion protein (1.9 μg/ml). […]

compound: CCCCN(CCCC)CCCNC(=O)c1ccc(-n2[nH]c3c(nnc4cccc(F)c43)c2=O)cc1
targetSystem: CD80-CD28 interaction (Homo sapiens, UniProt P33681)
EC50: < 1000 nM

compound: Cc1ccc2nnc3c(=O)n(-c4ccc(C(=O)NCCCN(C)C)cc4)[nH]c3c2c1
targetSystem: CD80-CD28 interaction (Homo sapiens, UniProt P33681)
EC50: < 1000 nM

compound: O=C(NCCc1ccc(Cl)c(Cl)c1)c1ccc(-n2[nH]c3c(nnc4c(F)cccc43)c2=O)cc1
targetSystem: CD80-CD28 interaction (Homo sapiens, UniProt P33681)
EC50: 1000 to 10000 nM

compound: CC(=O)NCCCCNC(=O)Nc1ccc(-n2[nH]c3c(nnc4ccccc43)c2=O)cc1
targetSystem: CD80-CD28 interaction (Homo sapiens, UniProt P33681)
EC50: < 1000 nM

compound: CC1CCCCN1CCCNC(=O)c1ccc(-n2[nH]c3c(nnc4cccc(F)c43)c2=O)cc1 (centres unmarked)
targetSystem: CD80-CD28 interaction (Homo sapiens, UniProt P33681)
EC50: < 1000 nM

compound: CC(C)(C)c1ccc(CN2CCC(NC(=O)c3ccc(-n4[nH]c5c(nnc6c(F)cccc65)c4=O)cc3)CC2)cc1
targetSystem: CD80-CD28 interaction (Homo sapiens, UniProt P33681)
EC50: < 1000 nM

compound: O=C(NCc1cccc(C(F)(F)F)c1)c1ccc(-n2[nH]c3c(nnc4ccccc43)c2=O)cc1
targetSystem: CD80-CD28 interaction (Homo sapiens, UniProt P33681)
EC50: > 10000 nM

compound: CC1CCCCN1CCCNC(=O)c1ccc(-n2[nH]c3c(nnc4ccc(F)cc43)c2=O)cc1 (centres unmarked)
targetSystem: CD80-CD28 interaction (Homo sapiens, UniProt P33681)
EC50: < 1000 nM

###

Recorded measurements of EC50, one per entry
- targetSystem: CD80-CD28 interaction (Homo sapiens, UniProt P33681)
- assayProcedure: Homogenous Time Resolved Fluorescence (HTRF) assay, cell free
- Format: binding
- experimentalContext: cell free HTRF assay; concentration series 100 μM-1.7 nM; 4 hours at room temperature; read-out: Activity (EC50 in the HTRF assay)

compound: CCC(C)NC(=O)c1ccc(-n2[nH]c3c(nnc4ccccc43)c2=O)cc1 (stereo not shown)
EC50: 1000 to 10000 nM
--
compound: O=C(NCCCN1CCOCC1)c1ccc(-n2[nH]c3c(nnc4c(F)cccc43)c2=O)cc1
EC50: < 1000 nM
--
compound: O=C(NCCc1cccc(Cl)c1)c1ccc(-n2[nH]c3c(nnc4c(F)cccc43)c2=O)cc1
EC50: 1000 to 10000 nM
--
compound: CN1CCC(NC(=O)c2ccc(-n3[nH]c4c(nnc5c(F)cccc54)c3=O)cc2)CC1
EC50: < 1000 nM
--
compound: O=C(NCCCCO)c1ccc(-n2[nH]c3c(nnc4ccc(F)cc43)c2=O)cc1
EC50: < 1000 nM
--
compound: Cc1ccc2nnc3c(=O)n(-c4ccc(C(=O)NC5CC(C)(C)N(C)C(C)(C)C5)cc4)[nH]c3c2c1
EC50: < 1000 nM
--
compound: O=C(NCCCN1CCCC1=O)Nc1ccc(-n2[nH]c3c(nnc4ccccc43)c2=O)cc1
EC50: 1000 to 10000 nM
--
compound: NC1CCC(NC(=O)c2ccc(-n3[nH]c4c(nnc5c(F)cccc54)c3=O)cc2)CC1 (stereo not shown)
EC50: < 1000 nM
--
compound: O=C(NCCCNC1CCCCC1)c1ccc(-n2[nH]c3c(nnc4c(Cl)cccc43)c2=O)cc1
EC50: < 1000 nM
--
compound: CCOC(CNC(=O)Nc1ccc(-n2[nH]c3c(nnc4ccccc43)c2=O)cc1)OCC
EC50: 1000 to 10000 nM
--
compound: CCN(CC)CCNC(=O)c1ccc(-n2[nH]c3c(nnc4ccc(F)cc43)c2=O)cc1
EC50: < 1000 nM
--
compound: CCN(CC)CCNCCNC(=O)c1ccc(-n2[nH]c3c(nnc4ccccc43)c2=O)cc1
EC50: < 1000 nM
--
compound: CCN(CC)CCCNC(=O)c1ccc(-n2[nH]c3c(nnc4c(F)cccc43)c2=O)cc1
EC50: < 1000 nM
--
compound: Cc1ccc2nnc3c(=O)n(-c4ccc(C(=O)NCCCNC5CCCCC5)cc4)[nH]c3c2c1
EC50: < 1000 nM
--
compound: CCCC(C)NC(=O)c1ccc(-n2[nH]c3c(nnc4ccccc43)c2=O)cc1 (stereo not shown)
EC50: < 1000 nM
--
compound: O=C(NCCC1=CCCCC1)c1ccc(-n2[nH]c3c(nnc4ccccc43)c2=O)cc1
EC50: > 10000 nM

###

- targetSystem: CD80-CD28 interaction (Homo sapiens)
- assayProcedure: Homogenous Time Resolved Fluorescence (HTRF) assay, cell free
- Format: binding
- experimentalContext: cell-free HTRF, compound concentration series 100 μM-1.7 nM, 4 hours at room temperature; read-out: Activity (EC50 in the HTRF assay)

compound: O=C(Nc1ccc(-n2[nH]c3c(nnc4ccccc43)c2=O)cc1)NC1CC2CCC1C2 (centres unmarked) [Example 199]
EC50: > 10 µM
--
compound: O=C(Nc1ccc(-n2[nH]c3c(nnc4ccccc43)c2=O)cc1)NC1CCOC1=O (centres unmarked) [Example 153]
EC50: 1 to 10 µM
--
compound: CCOC(=O)CC(C)NC(=O)c1ccc(-n2[nH]c3c(nnc4ccccc43)c2=O)cc1 (centres unmarked) [Example 34]
EC50: 1 to 10 µM
--
compound: C=C(C)C(=O)OCCNC(=O)Nc1ccc(-n2[nH]c3c(nnc4ccccc43)c2=O)cc1 [Example 209]
EC50: > 10 µM
--
compound: COCCCNC(=O)Nc1ccc(-n2[nH]c3c(nnc4ccccc43)c2=O)cc1 [Example 133]
EC50: 1 to 10 µM
--
compound: O=C(Nc1ccc(-n2[nH]c3c(nnc4ccccc43)c2=O)cc1)NC1CCCCC1OCc1ccccc1 (centres unmarked) [Example 212]
EC50: > 10 µM
--
compound: CC(C)OCCCNC(=O)c1ccc(-n2[nH]c3c(nnc4ccccc43)c2=O)cc1 [Example 53]
EC50: < 1 µM
--
compound: O=C(NCCOCCO)Nc1ccc(-n2[nH]c3c(nnc4ccccc43)c2=O)cc1 [Example 145]
EC50: < 1 µM
--
compound: CCN1CCCC1CNC(=O)c1ccc(-n2[nH]c3c(nnc4ccccc43)c2=O)cc1 (centres unmarked) [Example 69]
EC50: < 1 µM
--
compound: O=C(NCc1ccc(F)cc1)c1ccc(-n2[nH]c3c(nnc4ccccc43)c2=O)cc1 [Example 56]
EC50: 1 to 10 µM
--
compound: O=C(Nc1ccc(-n2[nH]c3c(nnc4ccccc43)c2=O)cc1)NC1CCN(Cc2ccccc2)CC1 [Example 123]
EC50: 1 to 10 µM
--
compound: CC1C(NC(=O)Nc2ccc(-n3[nH]c4c(nnc5ccccc54)c3=O)cc2)CC2CC1C2(C)C (centres unmarked) [Example 201]
EC50: > 10 µM
--
compound: CC(NC(=O)Nc1ccc(-n2[nH]c3c(nnc4ccccc43)c2=O)cc1)C1CCCCC1 (centres unmarked) [Example 194]
EC50: > 10 µM
--
compound: NCCCCNC(=O)c1ccc(-n2[nH]c3c(nnc4ccccc43)c2=O)cc1 [Example 54]
EC50: < 1 µM
--
compound: O=C(NCc1cccc([N+](=O)[O-])c1)c1ccc(-n2[nH]c3c(nnc4ccccc43)c2=O)cc1 [Example 39]
EC50: 1 to 10 µM
--
compound: COCC(C)NC(=O)c1ccc(-n2[nH]c3c(nnc4ccccc43)c2=O)cc1 (centres unmarked) [Example 119]
EC50: 1 to 10 µM
--
compound: CC(C)NCCNC(=O)Nc1ccc(-n2[nH]c3c(nnc4ccccc43)c2=O)cc1 [Example 141]
EC50: < 1 µM

###

Listed next: entries and their corresponding pEC50.
- targetSystem: CD80-CD28 interaction (Homo sapiens, UniProt P33681)
- assayProcedure: Homogenous Time Resolved Fluorescence (HTRF) assay, cell free
- Format: binding
- experimentalContext: cell free HTRF assay; concentration series 100 μM-1.7 nM; 4 hours at room temperature; read-out: Activity (EC50 in the HTRF assay)
- Description: Homogenous Time Resolved Fluorescence Assay The examples described above were tested in a cell free Homogenous Time Resolved Fluorescence (HTRF) assay to determine their activity as inhibitors of the CD80-CD28 interaction. […] Non-specific interaction was measured by substituting a mouse Fab fragment (C215) for the CD80 mouse Fab fragment fusion protein (1.9 μg/ml). […]
pEC50: −log10 of the molar value.

compound: CCCNCCNC(=O)c1ccc(-n2[nH]c3c(nnc4c(F)cccc43)c2=O)cc1
targetSystem: CD80-CD28 interaction (Homo sapiens, UniProt P33681)
pEC50: > 6.00

compound: CNCCCNC(=O)c1ccc(-n2[nH]c3c(nnc4c(F)cccc43)c2=O)cc1
targetSystem: CD80-CD28 interaction (Homo sapiens, UniProt P33681)
pEC50: > 6.00

compound: CC(C)=CCC/C(C)=C/CNC(=O)Nc1ccc(-n2[nH]c3c(nnc4ccccc43)c2=O)cc1
targetSystem: CD80-CD28 interaction (Homo sapiens, UniProt P33681)
pEC50: < 5.00

compound: C=CCNC(=O)c1ccc(-n2[nH]c3c(nnc4ccccc43)c2=O)cc1
targetSystem: CD80-CD28 interaction (Homo sapiens, UniProt P33681)
pEC50: > 6.00

compound: O=C(NC1CCC1)c1ccc(-n2[nH]c3c(nnc4ccccc43)c2=O)cc1
targetSystem: CD80-CD28 interaction (Homo sapiens, UniProt P33681)
pEC50: 5.00 to 6.00

compound: CCN(CC)CCCNC(=O)c1ccc(-n2[nH]c3c(nnc4cccc(F)c43)c2=O)cc1
targetSystem: CD80-CD28 interaction (Homo sapiens, UniProt P33681)
pEC50: > 6.00

compound: O=C(NCc1ccco1)c1ccc(-n2[nH]c3c(nnc4ccccc43)c2=O)cc1
targetSystem: CD80-CD28 interaction (Homo sapiens, UniProt P33681)
pEC50: > 6.00

compound: CN1CCCC1CCNC(=O)c1ccc(-n2[nH]c3c(nnc4c(F)cccc43)c2=O)cc1 (centres unmarked)
targetSystem: CD80-CD28 interaction (Homo sapiens, UniProt P33681)
pEC50: > 6.00
